Values compiled from patent US20200270125A1.

Molecular target: T1, human MASP-3 (construct not stated) (human)
T1 construct: also called MASP-3 antigen
T1 chain: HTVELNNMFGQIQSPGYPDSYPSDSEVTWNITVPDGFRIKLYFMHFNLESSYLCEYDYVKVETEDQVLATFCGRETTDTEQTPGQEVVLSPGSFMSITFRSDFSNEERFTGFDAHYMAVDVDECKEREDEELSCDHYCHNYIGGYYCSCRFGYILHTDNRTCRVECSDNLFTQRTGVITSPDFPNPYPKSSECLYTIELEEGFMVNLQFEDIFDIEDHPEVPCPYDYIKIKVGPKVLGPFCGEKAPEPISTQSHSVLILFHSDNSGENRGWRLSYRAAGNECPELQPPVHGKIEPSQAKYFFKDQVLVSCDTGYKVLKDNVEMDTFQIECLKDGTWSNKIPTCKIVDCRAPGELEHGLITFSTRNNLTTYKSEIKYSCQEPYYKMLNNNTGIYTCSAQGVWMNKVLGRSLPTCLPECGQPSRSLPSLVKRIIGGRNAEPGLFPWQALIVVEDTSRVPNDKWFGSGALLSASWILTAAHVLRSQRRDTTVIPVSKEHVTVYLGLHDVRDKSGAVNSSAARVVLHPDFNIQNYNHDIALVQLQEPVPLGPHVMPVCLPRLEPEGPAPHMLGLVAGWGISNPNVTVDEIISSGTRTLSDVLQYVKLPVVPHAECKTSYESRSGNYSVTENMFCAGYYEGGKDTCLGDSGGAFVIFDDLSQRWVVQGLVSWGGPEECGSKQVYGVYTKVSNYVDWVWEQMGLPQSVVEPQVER
Test: ELISA, monovalent Fab
outcome measure: EC50 (nM)

1. h13B1_10-1 Fab (VH-10 and VL-1) (Fab, V domains shown, Humanized monovalent Fab; also called h13B1_10-1 parental Fab) VH: QVQLVQSGAEVKKPGASVKVSCKASGYTFTGKWIEWVRQAPGQGLEWIGEILPGTGSTNYNEKFKGRATFTADSSTSTAYMELSSLRSEDTAVYYCLRSEDVWGQGTLVTVSS VL: DIVMTQSPDSLAVSLGERATINCKSSQSLLNSRTRKNYLAWYQQKPGQPPKLLIYWASTRESGVPDRFSGSGSGTDFTLTISSLQAEDVAVYYCKQSYNIPTFGQGTKVEIKR = 0.097
2. 13B1 Parental Fab (Fab, V domains shown, Monovalent Fab; also called M3-1 Fab; 13B1 Fab) VH: QVQLKQSGAELMKPGASVKLSCKATGYTFTGKWIEWVKQRPGHGLEWIGEILPGTGSTNYNEKFKGKATFTADSSSNTAYMQLSSLTTEDSAMYYCLRSEDVWGTGTTVTVSS VL: DIVMTQSPSSLAVSAGEKVTMSCKSSQSLLNSRTRKNYLAWYQQKPGQSPKLLIYWASTRESGVPDRFTGSGSGTDFTLTISSVQAEDLAVYYCKQSYNIPTFGGGTKLEIKR = 0.123
3. h4D5_19-1 Fab (VH-19 and VL-1) (Fab, V domains shown, Humanized monovalent Fab; also called h4D5_19-1 parental Fab) VH: QVQLVQSGAEVKKPGASVKVSCKASGYTFTTDDINWVRQAPGQGLEWIGWIYPRDDRTKYNDKFKDRATLTVDTSSNTAYMELSSLRSEDTAVYYCSSLEDTYWGQGTLVTVSS VL: DIVMTQSPDSLAVSLGERATINCKSSQSLLNSRTRKNYLAWYQQKPGQPPKLLIYWASTRESGVPDRFSGSGSGTDFTLTISSLQAEDVAVYYCKQSYNLYTFGQGTKVEIKR = 0.079
